Source listed as patent US8026218.

List of GTP EMax values.
System tested: rat µ opioid receptor (rat, UniProt P33535 1-398)
Sequence (P33535 whole entry): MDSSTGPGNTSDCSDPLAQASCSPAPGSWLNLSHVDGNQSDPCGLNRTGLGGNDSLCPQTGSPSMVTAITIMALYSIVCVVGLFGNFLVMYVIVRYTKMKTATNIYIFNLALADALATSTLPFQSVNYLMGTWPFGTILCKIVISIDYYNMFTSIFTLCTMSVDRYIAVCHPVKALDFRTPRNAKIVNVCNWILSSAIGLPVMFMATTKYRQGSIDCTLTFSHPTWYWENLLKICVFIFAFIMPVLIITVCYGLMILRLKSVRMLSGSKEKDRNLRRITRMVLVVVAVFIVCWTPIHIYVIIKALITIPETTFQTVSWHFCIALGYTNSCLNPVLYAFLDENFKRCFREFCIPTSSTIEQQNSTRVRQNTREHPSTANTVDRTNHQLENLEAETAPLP
Assay comment: cell-based or functional assay
Square brackets hold non-standard residues; d marks the D form. Primed or numbered codes have the meaning given here. Ends that are not written are not given here. O‑Bzl(CF3)2 = C-terminal bis(trifluoromethyl)benzyl ester; O‑Bzl(CF3)2″ = C-terminal Bzl(CF3)2 ester; Abu = CC[C@H](N)C(=O)O; Aib = CC(C)(N)C(=O)O; βAla = NCCC(=O)O
Assay endpoint: GTP EMax

{"Binder": "Y[dA]GFPW-{O‑Bzl(CF3)2} (also called NP39) [Tyr-DAla-Gly-Phe-Pro-Trp-O-Bzl(CF3)2]", "Assay endpoint": "GTP EMax", "Val": 47}
{"Binder": "Y[dA]GF[Aib]W-{O‑Bzl(CF3)2″} (also called NP41) [Tyr-DAla-Gly-Phe-Aib-Trp-O-Bzl(CF3)2]", "Assay endpoint": "GTP EMax", "Val": 36}
{"Binder": "Y[dA]GFXW-{O‑Bzl(CF3)2} (not fully specified (residue 5); printed as Tyr-DAla-Gly-Phe-γ-Abu-Trp-O-Bzl(CF3)2, also called NP34) [Tyr-DAla-Gly-Phe-γ-Abu-Trp-O-Bzl(CF3)2]", "Assay endpoint": "GTP EMax", "Val": 27}
{"Binder": "Y[dA]GFGW-{O‑Bzl(CF3)2} [Tyr-DAla-Gly-Phe-Gly-Trp-O-Bzl(CF3)2]", "Assay endpoint": "GTP EMax", "Val": 36}
{"Binder": "Y[dA]GF[Abu]W-{O‑Bzl(CF3)2} (also called NP33) [Tyr-DAla-Gly-Phe-α-Abu-Trp-O-Bzl(CF3)2]", "Assay endpoint": "GTP EMax", "Val": 32}
{"Binder": "Y[dA]GFLW-{O‑Bzl(CF3)2} (also called NP37) [Tyr-DAla-Gly-Phe-Leu-Trp-O-Bzl(CF3)2]", "Assay endpoint": "GTP EMax", "Val": 54}
{"Binder": "Y[dA]GFAW-{O‑Bzl(CF3)2} (also called NP31) [Tyr-DAla-Gly-Phe-Ala-Trp-O-Bzl(CF3)2]", "Assay endpoint": "GTP EMax", "Val": 50}
{"Binder": "Y[dA]GF[βAla]W-{O‑Bzl(CF3)2} (also called NP32) [Tyr-DAla-Gly-Phe-β-Ala-Trp-O-Bzl(CF3)2]", "Assay endpoint": "GTP EMax", "Val": 70}
{"Binder": "Y[dA]GFMW-{O‑Bzl(CF3)2} (also called NP38) [Tyr-DAla-Gly-Phe-Met-Trp-O-Bzl(CF3)2]", "Assay endpoint": "GTP EMax", "Val": 51}
{"Binder": "Y[dA]GF[dA]W-{O‑Bzl(CF3)2} (also called NP40) [Tyr-DAla-Gly-Phe-D-Ala-Trp-O-Bzl(CF3)2]", "Assay endpoint": "GTP EMax", "Val": 19}
